Values from patent US20210309631A1

experiment: In vivo individual difference analysis: individual plasma concentration versus time in rats (Example 8); parameters: species or system SD rats; conditions: male, SD, rat, plasma, oral, 1 mg/kg, intragastric 1 mg/kg, 0.333 h after administration, Mean ± SD, read-out: Plasma Concentrations of Compound of Formula I
RESULT TYPE: concentration at 0.333 h (ng/mL)
# value in ng/mL; strip the unit string

concentration at 0.333 h measured on CN(C)C(=O)N[C@H]1CC[C@H](CCN2CCN(c3cccc4ccsc34)CC2)CC1 [Example 1] = 42.2

----------
test: In vivo individual difference analysis: individual plasma concentration versus time in rats (Example 8); design: species or system SD rats; details: male, SD, rat, plasma, oral, 1 mg/kg, intragastric 1 mg/kg, 0 h after administration, rat 3♂, read-out: Plasma Concentrations of Compound of Formula I
RESULT TYPE: concentration at 0 h (ng/mL)
# value in ng/mL; strip the unit string

concentration at 0 h measured on CN(C)C(=O)N[C@H]1CC[C@H](CCN2CCN(c3cccc4ccsc34)CC2)CC1 [Example 1] = 0
